Where these numbers come from: patent US7022736B2

# test_system: HCV RdRp (NS5B RNA-dependent RNA polymerase) (Hepatitis C virus genotype 1b, UniProt P26663)
# Construct: The HCV NS5B protein is the viral RdRp; made in house; host or cells: insect cells infected with recombinant baculovirus
# Sequence (P26663 2420-3010): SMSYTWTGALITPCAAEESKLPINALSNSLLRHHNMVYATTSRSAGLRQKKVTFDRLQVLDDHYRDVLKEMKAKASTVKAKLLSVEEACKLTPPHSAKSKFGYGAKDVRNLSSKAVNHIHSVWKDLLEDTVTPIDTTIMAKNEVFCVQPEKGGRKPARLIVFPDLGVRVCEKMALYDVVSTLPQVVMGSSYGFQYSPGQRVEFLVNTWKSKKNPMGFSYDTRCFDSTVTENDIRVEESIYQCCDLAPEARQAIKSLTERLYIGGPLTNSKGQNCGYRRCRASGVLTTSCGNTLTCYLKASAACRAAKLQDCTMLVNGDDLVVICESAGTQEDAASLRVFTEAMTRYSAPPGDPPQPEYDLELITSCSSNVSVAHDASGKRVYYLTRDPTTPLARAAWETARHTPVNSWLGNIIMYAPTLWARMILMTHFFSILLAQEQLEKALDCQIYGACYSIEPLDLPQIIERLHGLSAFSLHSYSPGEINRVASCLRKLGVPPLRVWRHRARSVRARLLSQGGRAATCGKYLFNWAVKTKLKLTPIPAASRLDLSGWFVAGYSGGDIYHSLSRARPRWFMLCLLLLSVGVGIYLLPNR
# procedure_details: Inhibition of hepatitis C virus RdRp (poly(A)/oligo(U), [3H]UTP incorporation)
# Assay type: biochemical
# reported_conditions: Tables I-VIII; 20 nM NS5B, 1 hour at 22° C.; read-out: IC 50 (μM), HCV-polymerase
measured_attribute: IC50 (µM)

# example entries with known answers
[[record]]
compound = "O=C(O)C(O)=CC(=O)c1cccc(NS(=O)(=O)c2cc(Cl)cc(Cl)c2O)c1"
observed_value = 0.3

[[record]]
compound = "O=C(O)C(O)=CC(=O)c1ccsc1Cc1ccc(F)cc1"
observed_value = 17.8

[[record]]
compound = "Cc1cccc(C(=O)C=C(O)C(=O)O)c1"
observed_value = 11.9

[[record]]
compound = "O=C(O)C(O)=CC(=O)c1ccc(Br)s1"
observed_value = 7.9

[[record]]
compound = "O=C(O)C(O)=CC(=O)c1cccc(OCc2c(Cl)cccc2Cl)c1"
observed_value = 1.4

[[record]]
compound = "N#CCCCCn1cccc1C(=O)C=C(O)C(=O)O"
observed_value = 13.4


(P) O=C(O)C(O)=CC(=O)c1cccc(NS(=O)(=O)c2c(Cl)cc(C(F)(F)F)cc2Cl)c1
(Q) O=C(O)C(O)=CC(=O)c1cccc(Oc2ccccc2)c1
INPUT: Of P and Q , which one carries the higher reported IC50? Field: selected label. Fill in the label of the entry you choose.
OUTPUT: Q

(a) Cc1ccc(C(=O)C=C(O)C(=O)O)c(C)c1
(b) O=C(O)C(O)=CC(=O)c1cc2c(s1)-c1ccccc1CC2
(c) O=C(O)C(O)=CC(=O)c1cccc(OCc2ccccn2)c1
INPUT: Hey, can you sort those compounds up there by IC50, smallest first? // list labels; follow requested order
OUTPUT: a, c, b

(P) Cc1cc(C)c(C(=O)C=C(O)C(=O)O)s1
(Q) O=C(O)C(O)=CC(=O)c1cccc(NS(=O)(=O)c2cc(Cl)ccc2Cl)c1
(R) CC1=CCC(C(=O)C=C(O)C(=O)O)CC1 (centres unmarked)
INPUT: Arrange the 3 compounds from largest to smallest IC50. // list labels; follow requested order
OUTPUT: R, P, Q
(R: 12.8 µM, P: 8.2 µM, Q: 0.7 µM)
